B1: CBL-interacting serine/threonine-protein kinase 1 (Arabidopsis thaliana (Mouse-ear cress)), Q8RWC9 (parent)
chain: MVRRQEEEKKAEKGMRLGKYELGRTLGEGNFGKVKFAKDTVSGHSFAVKIIDKSRIADLNFSLQIKREIRTLKMLKHPHIVRLHEVLASKTKINMVMELVTGGELFDRIVSNGKLTETDGRKMFQQLIDGISYCHSKGVFHRDLKLENVLLDAKGHIKITDFGLSALPQHFRDDGLLHTTCGSPNYVAPEVLANRGYDGAASDIWSCGVILYVILTGCLPFDDRNLAVLYQKICKGDPPIPRWLSPGARTMIKRMLDPNPVTRITVVGIKASEWFKLEYIPSIPDDDDEEEVDTDDDAFSIQELGSEEGKGSDSPTIINAFQLIGMSSFLDLSGFFEQENVSERRIRFTSNSSAKDLLEKIETAVTEMGFSVQKKHAKLRVKQEERNQKGQVGLSVTAEVFEIKPSLNVVELRKSYGDSCLYRQLYERLLKDVGTSSPEQEIVT

- Variants of: B1
- experimental-parameters: with cnbl2_arath CBL2, Q8LAS7
measured-parameter: effect of a mutation on the interaction

Recorded effect of a mutation on the interaction, per entry:
mutation-name | effect of a mutation on the interaction
A320P | disrupting interaction
S327L | decreasing interaction
I324D | decreasing interaction
L332D | disrupting interaction
P315A | decreasing interaction

Now look at this entry.
Entry `F335P` ; effect of a mutation on the interaction = disrupting interaction
